# Test system: 883617-216-R-J1-PDC complex spheroid viability;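 note: exposure lasted seven days after three days of spheroid growth; 100% = DMSO vehicle control luminescence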
# experimentalProtocol: Anticancer human tumor 883617-216-R-J1-PDC patient-derived bladder carcinoma cell line growth inhibition
# conditionNotes: second compound 1 µM; first compound 0.01 µM; hits give low values
# Excerpt: Multicellular complex tumor spheroid response to LSD1 Inhibitor Iadademstat in combination with a variety of drugs and investigational agents in selected tumor cell lines The current study was undertaken to assess response to LSD1 inhibitors in combination with standard-of-care drugs and investigational agents in solid tumor complex spheroid models as well as in the K-562 leukemia. […] Compounds. […] If the clinical Cmax for an agent had not been determined, the highest concentration tested was 10 microM. […]
propertyMeasured: viability, T/C

Known viability, T/C results, listed for orientation:
Quick check: viability, T/C of CC(C)CC(NC(=O)C(Cc1ccccc1)NC(=O)c1cnccn1)B(O)O (stereo not drawn) + NC1CC1c1ccc(-c2cccc(O)c2)cc1 ?
0.02%

Quick check: viability, T/C of CC1COCCN1c1cc(-c2ccnn2C)c2ccnc(-c3ccn[nH]3)c2n1 (stereo not drawn) + NC1CC1c1ccc(-c2cccc(O)c2)cc1 ?
49.8%

Quick check: viability, T/C of CC1COCCN1c1cc(-c2ccnn2C)c2ccnc(-c3ccn[nH]3)c2n1 (stereo not drawn) + NC1CCC(NC2CC2c2ccccc2)CC1 ?
60.2%

Quick check: viability, T/C of Nc1ncn(C2CC(O)C(CO)O2)c(=O)n1 (stereo not drawn) + NC1CCC(NC2CC2c2ccccc2)CC1 ?
98.8%

Quick check: viability, T/C of CC(C)CC(NC(=O)CNC(=O)c1cc(Cl)ccc1Cl)B1OC(=O)CC(CC(=O)O)(C(=O)O)O1 (stereo not drawn) + NC1CC1c1ccc(-c2cccc(O)c2)cc1 ?
18.4%

Quick check: viability, T/C of Nc1ncn(C2CC(O)C(CO)O2)c(=O)n1 (stereo not drawn) + NC1CC1c1ccc(-c2cccc(O)c2)cc1 ?
122%

Quick check: viability, T/C of CC(C)CC(NC(=O)C(Cc1ccccc1)NC(=O)c1cnccn1)B(O)O (stereo not drawn) + NC1CCC(NC2CC2c2ccccc2)CC1 ?
1.21%

Now for the compound whose viability, T/C we want.
Quick check: viability, T/C of Cn1ncnc1C1c2n[nH]c(=O)c3cc(F)cc(c23)NC1c1ccc(F)cc1 (stereo not drawn) + NC1CC1c1ccc(-c2cccc(O)c2)cc1 ?
50.2%
